Assay: qHTS for Inhibitors of human tyrosyl-DNA phosphodiesterase 1 (TDP1): qHTS in cells in absence of CPT; note: nearly all actives have a fitted effect of over 55% in size
Conditions: DT40 Tdp1-/- hTDP1 cells, no CPT, ATP luminescence, 48 h
About 64,000 (15%) of roughly 420,000 compounds were called active. Inconclusive results (about 27%) are left out. Calls come from the whole dose curve; as a rule, active = well fitted inhibition curve with a large enough effect; inconclusive = small, poorly fitted or top-dose-only effect; inactive = flat fitted curve, though single readings scatter. A selection follows.
Write down one outcome, taken from yes (active), no (inactive)

# count of solved cases: 3
CCOC(=O)C1(CCOc2ccccc2)CCN(Cc2ccc(C#CCCO)cc2)CC1; yes
Cc1ccc2c(c1)C(O)(CC(=O)c1cccnc1)C(=O)N2 (stereo not drawn); no
O=C(C1CCCO1)N1CCN(C(=S)Nc2cccc(Cl)c2)CC1 (stereo not drawn); no

Q: How did this test come out for `Cc1cc(=O)oc2c1c(C)nn2-c1ccc(Cl)cc1` ?
Ans: no

Q: How did this test come out for Cc1ccc2cccc(NC(=O)C(C)Oc3ccc(C)c(C)c3)c2n1 (stereo not drawn) ?
Ans: no

Q: How did this test come out for `CCn1c(CN2C(=O)CSc3ccccc32)n[nH]c1=S` ?
Ans: no

Q: How did this test come out for `COC(=O)Cc1c(C)c2ccc(OCC(=O)NCc3ccc4c(c3)OCO4)cc2oc1=O` ?
Ans: no

Q: How did this test come out for `COc1cc(C(C)=O)ccc1OC(=O)CN1C(=O)c2ccccc2C1=O` ?
Ans: no

Attribution: PubChem BioAssay AID686978
